# Test system: SN12C renal
# Procedure details: NCI tumour cell line growth inhibition, 48 h
Measurement label: TGI (µM)
Please respond with the number in µM and leave the unit unwritten.

Solved entries:
[
  {
    "Compound": "CSC1(SC2=NCCN2)SC2(NCCN2)S1",
    "TGI (µM)": 41.4
  },
  {
    "Compound": "COC(=O)C1=C(C)NC(C)=C(C(=O)OC)C1c1cccc(NO)c1",
    "TGI (µM)": 32.9
  }
]

Okay, now this compound:
Query: Request body: readout TGI, system SN12C renal, query Cc1ccc(S(=O)(=O)NNC2(NS(=O)(=O)c3ccc(Cl)cc3)C(Cl)=C(Cl)C(=O)c3ccccc32)cc1 (stereo not given) . Return the value.
Result: 31.6
